Biological target: T1, recombinant human activated Factor VII (FVIIa) (human, UniProt P08709 61-212; P08709 213-466, ten glutamate residues of the Gla domain may be gamma-carboxylated)
T1 construct: chains tethered by a disulfide bond; also called Factor VIIa; rFVIIa
T1 sequence 1: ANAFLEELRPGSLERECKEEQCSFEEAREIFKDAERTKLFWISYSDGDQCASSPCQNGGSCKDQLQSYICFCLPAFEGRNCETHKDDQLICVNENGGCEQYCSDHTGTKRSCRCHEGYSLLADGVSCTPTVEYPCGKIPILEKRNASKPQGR
T1 sequence 2: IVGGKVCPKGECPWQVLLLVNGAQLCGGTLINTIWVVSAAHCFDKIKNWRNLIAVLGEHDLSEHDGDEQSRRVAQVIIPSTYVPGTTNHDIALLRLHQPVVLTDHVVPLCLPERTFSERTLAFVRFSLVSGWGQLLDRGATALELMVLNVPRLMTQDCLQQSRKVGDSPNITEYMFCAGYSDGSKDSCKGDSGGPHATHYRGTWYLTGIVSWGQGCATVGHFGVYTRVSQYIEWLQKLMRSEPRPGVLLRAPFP
Test: BLI (Fortebio)
Overview of recorded pKd for various binders
// pKd is dimensionless: -log10 of concentration (M)

Binder	pKd
VH SEQ ID NO 314 / VL SEQ ID NO 486 (antibody, IgG4, V domains shown, humanized 11F2; IgG4 S228P/kappa) VH: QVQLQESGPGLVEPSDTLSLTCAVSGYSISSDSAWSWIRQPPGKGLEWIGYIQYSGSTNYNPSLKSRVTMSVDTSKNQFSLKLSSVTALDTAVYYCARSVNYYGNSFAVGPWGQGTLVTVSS VL: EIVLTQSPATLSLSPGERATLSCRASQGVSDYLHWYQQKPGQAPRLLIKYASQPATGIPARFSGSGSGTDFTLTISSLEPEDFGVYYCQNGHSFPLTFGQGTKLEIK	7.66

Query: Which pKd value is on record for VH SEQ ID NO 514 / VL SEQ ID NO 470 (antibody, IgG4, V domains shown, humanized 11F2; IgG4 S228P/kappa) VH: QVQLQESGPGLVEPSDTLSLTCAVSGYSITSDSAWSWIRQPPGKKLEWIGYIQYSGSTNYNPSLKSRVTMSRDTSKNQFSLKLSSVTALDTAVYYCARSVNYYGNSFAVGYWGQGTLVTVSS VL: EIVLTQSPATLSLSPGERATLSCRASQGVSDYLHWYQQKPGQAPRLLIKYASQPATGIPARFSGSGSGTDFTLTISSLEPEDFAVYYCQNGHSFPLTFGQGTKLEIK ?
Response: 8.92
